All figures here come from PubChem BioAssay (Tox21).

# Test description: qHTS assay to identify small molecule agonists of the endoplasmic reticulum stress response signaling pathway (AID 1159516)
# Condition details: ESRE-bla HeLa, ER stress beta-lactamase reporter, 5 h; series mostly up to 61 µM
Results filed as inconclusive are left out. The source made the active and inactive calls. Calls follow the shape of the dose curve; as a rule, active = well fitted activation curve with a large enough effect in the signal ratio in the repeat runs (not every such curve was filed as active); inconclusive = weak or mixed curves, or effect the other way; inactive = flat fitted curve, though single readings scatter; the % refers to the signal ratio.
Readout: outcome

These recorded examples may help you get a feel for the data.
>>> df
                                   compound  result_value
0  COc1ccccc1N1CCN(CCCCNC(=O)c2ccc(-c3ccc(C(C)=O)cc3)cc2)CC1      inactive
1  CN1C[C@H](C(=O)N[C@]2(C)O[C@@]3(O)[C@@H]4CCCN4C(=O)[C@H](Cc4ccccc4)N3C2=O)C[C@@H]2c3cccc4[nH]cc(c34)C[C@H]21      inactive
2         O=c1cc(-c2ccccc2)oc2cc(O)cc(O)c12      inactive
3  C[C@]12CC[C@@H]3c4ccc(O)cc4CC[C@H]3[C@@H]1CC[C@@H]2OC(=O)CCC1CCCC1      inactive

Query string: Return value of outcome for input CC(C)C[C@H](NC(=O)[C@H](CCc1ccccc1)NC(=O)CN1CCOCC1)C(=O)N[C@@H](Cc1ccccc1)C(=O)N[C@@H](CC(C)C)C(=O)[C@@]1(C)CO1 , no commentary.
Result string: inactive

Query string: # return recorded outcome for input CCC=CC#N
Result string: inactive

Query string: Please report outcome for the following compound: Oc1cccc(Nc2ccccc2)c1
Result string: inactive

* * *

# Test description: A CellTox Green Cytotoxicity Assay to monitor cytotoxicity in HepG2 cells - 16 hour (AID 1224876); also: nearly all actives have a fitted effect of over 45% in size
# Condition details: CellTox Green fluorescence; series mostly up to 76.8 µM
Results filed as inconclusive are left out. Active and inactive are the calls of the source. Calls come from the whole dose curve; as a rule, active = well fitted activation curve with a large enough effect in the repeat runs; inconclusive = weak or mixed curves; inactive = flat fitted curve, though single readings scatter.
Outcome field: choose from active, inactive

Solved cases (8 shown):
In [3]: df
Out[3]:
                                   molecule  discrete_label
0                   CCCCCCCCCCCCCCN(CCO)CCO          active
1  CC(=O)Nc1cc(S(=O)(=O)O)cc2cc(S(=O)(=O)O)c(N=Nc3ccccc3)c(O)c12        inactive
2  O=[N+]([O-])c1ccc(O/N=C/c2cc(Br)c(O)c(Br)c2)c([N+](=O)[O-])c1        inactive
3  CCOC(=O)C1=C(C)NC(C)=C(C(=O)OC)C1c1cccc(Cl)c1Cl (configuration not stated)        inactive
4          Cc1ccc(Cl)c(Nc2ccccc2C(=O)O)c1Cl        inactive
5                   CC/C=C1/OC(=O)c2ccccc21        inactive
6         O=c1cc(-c2ccccc2)oc2ccc3ccccc3c12          active
7  C=CC(C)(CCC=C(C)C)OC(=O)CC(C)C (configuration not stated)        inactive

Query string: Query: recorded result category for CCC(=O)OC in this test
Result string: inactive

Query string: Hello, I am checking results. What call was entered for C=COCC(C)C ?
Result string: inactive

Query string: Recorded test outcome, item CCOc1cccc(-n2cc(C(=O)N3CCN(c4cc(C(=O)O)c5ccccc5c4)CC3)nc2-c2ccc(C)cc2)c1
Result string: inactive

Query string: Called result for COC(=O)[C@H]1[C@H]2C[C@@H]3c4[nH]c5cc(OC)ccc5c4CCN3C[C@H]2C[C@@H](OC(=O)/C=C/c2ccc(O)c(OC)c2)[C@@H]1OC
Result string: active
